Data origin, for the record: patent US10442805B2

protocol.description: Hydrate screen on the HCl salt: solubility in ethanol/water
Assay type: physicochemical
condition.context: ethanol/water mixture, aqueous with cosolvent or surfactant or cyclodextrin, thermodynamic from solid, Ethanol/water aw 0.4; solubility
reported.metric: solubility at 21 days (mg/mL)
Give a bare numeral; the unit mg/mL is implied.

Entry CC[C@H](Nc1ncnc2[nH]cnc12)c1nc2cccc(F)c2c(=O)n1-c1ccccc1 : reported solubility at 21 days = ?
66

###

protocol.description: Hydrate screen on the HCl salt: solubility in ethanol/water
Assay type: physicochemical
condition.context: ethanol/water mixture, aqueous with cosolvent or surfactant or cyclodextrin, thermodynamic from solid, Ethanol/water aw 0.2; solubility
reported.metric: solubility at 21 days (mg/mL)
Give a bare numeral; the unit mg/mL is implied.

Entry CC[C@H](Nc1ncnc2[nH]cnc12)c1nc2cccc(F)c2c(=O)n1-c1ccccc1 : reported solubility at 21 days = ?
60
